Data provenance: ChEMBL document CHEMBL3507680

# test.details: Human HepG2 cell viability assay in 384 well format
# Assay type: toxicity, cell-based
# Design: dose 125 nL, time 70.5 hour; concentration not given beside the values
# experimental.setup: HepG2 cells, read-out: Inhibition
// values below are reported cytotoxicity at 70.5 h
API: value field is a number in %; no unit string.

Some solved cases for reference:
compound | cytotoxicity at 70.5 h / %
CC(C)S(=O)(=O)N1C[C@@H](c2ccccc2)[C@H]2[C@H]1CCCCCN2C | -5.45
COC(C)(C)CC(C)NC(=O)NC1CCN(Cc2ccccn2)CC1 (stereo unspecified) | -0.855
CC(C)CNC(=O)c1nc(COc2ccc3c(c2)OCO3)no1 | -7.9
O=C(O)c1cc(-c2ccccc2)ns1 | -20.2
O=C(CN1CCCCCC1)NCc1cccnc1Oc1ccccc1 | -2.72

Attention now turns to another entry.
Item under review: CS(=O)(=O)N1CCC(CNC(=O)C2CCC2)CC1 . Reported cytotoxicity at 70.5 h?
40.8
